test system: Fibroblast; assay: Multiplex assay against human fibroblast; type: toxicity, cell-based; conditions: 24 h, 1 µM, compound concentration 1 uM, replicate 2
EXPERIMENTAL READOUT: Total Cell Count
Give the value as a plain number.

Example entries and their recorded answers appear below.
COMPOUND: CCCCC(=O)N(Cc1ccc(-c2ccccc2-c2nnn[nH]2)cc1)[C@H](C(=O)O)C(C)C
MEAS VALUE: 145
//
COMPOUND: Cl.N=C(N)NC(=O)Cc1c(Cl)cccc1Cl [GUANFACINE HYDROCHLORIDE]
MEAS VALUE: 130
//
COMPOUND: CCCCCC(O)/C=C/[C@H]1C(=O)CC(O)C1C/C=C\CCCC(=O)O (some centres undefined)
MEAS VALUE: 184
//
COMPOUND: CN1CCN(c2cc(-c3ccccc3)nc(N)n2)CC1
MEAS VALUE: 106
//
COMPOUND: Cl.NCCc1ccc(O)c(O)c1 [DOPAMINE HYDROCHLORIDE]
MEAS VALUE: 150

Query: Query for Fibroblast: what Total Cell Count does the record show for "CC(/C=C1\SC(=S)N(CCCC(=O)Nc2ccc(C(=O)O)c(O)c2)C1=O)=C\c1ccccc1" ?
Result: 144

----------
Below is a list of entries, each paired with its recorded Population Hoechst High Intensity Objects (%) value.
system: U2OS; assay: Multiplex assay against U2OS; assay type: toxicity, cell-based; conditions: human, 48 h, 10 µM, compound concentration 10 uM, replicate 1
# value in %; strip the unit string

Example entries and their recorded answers appear below.
MOLECULE: CC(C)c1noc(N2CCC(COc3ccc(-c4ccc(S(C)(=O)=O)cc4)nc3)CC2)n1
MEAS VALUE: 4
//
MOLECULE: CN(C)C(=O)Cn1cc(-c2ccc(-c3cncc4ccccc34)cc2)cn1
MEAS VALUE: 2
//
MOLECULE: CC[C@@H](C)Nc1nc(C)nc2c(-c3ccc(OC)nc3C)c(C)nn12
MEAS VALUE: 1
//
MOLECULE: CC(=O)Nc1cccc2c1c(Sc1ccc(Cl)cc1)c(C)n2CC(=O)O
MEAS VALUE: 2
//
MOLECULE: Cl.NCCc1ccc(O)c(O)c1 [DOPAMINE HYDROCHLORIDE]
MEAS VALUE: 2
//
MOLECULE: Cc1noc(-c2ccc(-c3ccc(CC(=O)O)cc3)cc2)c1NC(=O)O[C@H](C)c1ccccc1Cl
MEAS VALUE: 3

Query: Quick check: Population Hoechst High Intensity Objects (%) of "O=C1[C@H](Cc2ccc(O)cc2)N2C(=O)CCN(C(=O)NCc3ccccc3)[C@H]2CN1Cc1cccc2ccccc12" ?
Result: 5

Query: Quick check: Population Hoechst High Intensity Objects (%) of Cc1sc2c(c1C)C(c1ccc(Cl)cc1)=N[C@@H](CC(=O)NCCCCCCCCNC(=O)COc1cccc3c1C(=O)N(C1CCC(=O)NC1=O)C3=O)c1nnc(C)n1-2 (some centres not stated) ?
Result: 7

Query: Quick check: Population Hoechst High Intensity Objects (%) of "COc1cccc2c1c(NS(=O)(=O)c1ccc(Cl)s1)nn2Cc1cccc(CNC(=O)C(C)(C)O)c1" ?
Result: 2

Query: Quick check: Population Hoechst High Intensity Objects (%) of "Cc1c(CC(=O)O)c2cccnc2n1Cc1ccc(S(C)(=O)=O)cc1C(F)(F)F" ?
Result: 1

Query: Quick check: Population Hoechst High Intensity Objects (%) of "CC(/C=C1\SC(=S)N(CCCC(=O)Nc2ccc(C(=O)O)c(O)c2)C1=O)=C\c1ccccc1" ?
Result: 2

Query: Quick check: Population Hoechst High Intensity Objects (%) of "CC(C)(C)c1cc(NC(=O)Nc2ccc(-c3cn4c(n3)sc3cc(OCCN5CCOCC5)ccc34)cc2)no1" ?
Result: 9

Query: Quick check: Population Hoechst High Intensity Objects (%) of CCCCCC(O)/C=C/[C@H]1C(=O)CC(O)C1C/C=C\CCCC(=O)O (some centres not stated) ?
Result: 3

Query: Quick check: Population Hoechst High Intensity Objects (%) of "N#Cc1c(Oc2cccc(OS(=O)(=O)CCCC(F)(F)F)c2)cccc1C(F)(F)F" ?
Result: 4

Query: Quick check: Population Hoechst High Intensity Objects (%) of Cl.N=C(N)NC(=O)Cc1c(Cl)cccc1Cl [GUANFACINE HYDROCHLORIDE] ?
Result: 2

Query: Quick check: Population Hoechst High Intensity Objects (%) of "CCc1cc2cc(NS(=O)(=O)c3ccc(C#N)cc3)ccc2n(CC)c1=O" ?
Result: 3

Query: Quick check: Population Hoechst High Intensity Objects (%) of "CN[C@@H](C)C(=O)N[C@H](C(=O)N1CCC[C@H]1C(=O)Nc1snnc1-c1ccccc1)C1CCCCC1" ?
Result: 11
